- Test system: XF498
- experiment.summary: Cytotoxicity against human XF498 cells after 48 hrs by SRB assay
- Type: functional, cell-based
- test.settings: XF498, 48 h
property.name: IC50 (nM)

[
  {
    "structure.string": "CC1=C(C)[C@H]2[C@H](Cc3ccccc3)NC(=O)[C@]23OC(=O)/C=C/[C@H](O)CCC[C@@H](C)C/C=C/[C@H]3[C@@H]1O",
    "tested.on": "XF498",
    "result": 12300
  },
  {
    "structure.string": "C=C1[C@@H](C)[C@H]2[C@H](Cc3ccccc3)NC(=O)[C@]23OC(=O)/C=C/[C@H](O)CCC[C@@H](C)C/C=C/[C@H]3[C@@H]1O",
    "tested.on": "XF498",
    "result": 2360
  },
  {
    "structure.string": "COc1cccc2c1C(=O)c1c(O)c3c(c(O)c1C2=O)C[C@@](O)(C(=O)CO)C[C@@H]3O[C@H]1C[C@H](N)[C@H](O)[C@H](C)O1",
    "tested.on": "XF498",
    "result": 15
  }
]
